assay: RP, Waters ACQUITY UPLC BEH C18, 100 × 1 mm, 1.7 µm, 50 °C, 0.3 mL/min, estimated dead time 0.17 min; A: water + 10 mM ammonium bicarbonate; B: 10% water + 90% methanol + 10 mM ammonium bicarbonate; gradient (min/%B) 0/0 15/100 21/100 22/0 30/0; conditions: stereoisomer not certain
I'd be grateful if you could share measured LC retention time for these entries.
Give bare numbers, in min.

Molecule	Unit abbrev	LC retention time
CC(NC(C)(C)C)C(=O)c1cccc(Cl)c1 (centres undefined) [Bupropion]	min	15.6
CCC1(c2cccc(O)c2)CCCCN(C)C1 (centres undefined) [Meptazinole]	min	14.4
O=C(Oc1ccccc1)c1ccccc1C(=O)Oc1ccccc1 [Diphenylphthalate]	min	16
Clc1ccccc1-c1nnc(-c2ccccc2Cl)nn1 [Clofentezine (Apolo)]	min	16.3

Consider the following items and state reported LC retention time for each.
1. CCc1cccc(CC)c1N(COC)C(=O)C(=O)O [Alachlor tert-oxanilic acid (OA)]
2. CNC(=O)Oc1ccccc1C(C)C [Isoprocarb]
3. C=C1CCC2C(C=C(C)C(=O)C3(O)CC(C)C(O)C3C1O)C2(C)C (centres undefined) [Lathyrol]
4. CC(=O)N(C)N(C(=O)C(=O)N(C)C)c1ccccc1 [AMDOPH]

## Result
15.9
13.1
15
9.52

## Task Entry under review: CCN(CCCCOC(=O)c1ccc(OC)c(OC)c1)C(C)Cc1ccc(OC)cc1 (centres undefined) [Mebeverine] . Reported LC retention time?
## Result 17.1

----------
experiment: RP, Waters ACQUITY UPLC BEH C18, 100 × 1 mm, 1.7 µm, 50 °C, 0.3 mL/min, estimated dead time 0.17 min; A: water + 10 mM ammonium bicarbonate; B: 10% water + 90% methanol + 10 mM ammonium bicarbonate; gradient (min/%B) 0/0 15/100 21/100 22/0 30/0; details: stereoisomer not certain
Label scheme for LC retention time: lower than 10 min is not met, 10 min and above is met.

Known results for molecules:
Molecule	Class
CC(CCC(=O)O)C1CCC2C3C(=O)CC4CC(O)CCC4(C)C3CCC12C (stereo not drawn)	met
Clc1ccc2c(c1)CCc1cccnc1C2=C1CCNCC1	met
COc1ccc(S(=O)(=O)O)cc1	not met
CC(C)(C#N)c1cc(Cn2cncn2)cc(C(C)(C)C#N)c1	met
Cc1nccc2c1[nH]c1ccccc12	met
NCC1(CC(=O)O)CCCCC1	not met
COCCCNc1nc(NC(C)C)nc(SC)n1	met

Now look at this one.
## Task Does the reported LC retention time for Cc1cc(C(C)(C)C)c(O)c(C(C)(C)C)c1 fall at or above the 10 min mark?
## Result met

----------
assay: RP, Waters ACQUITY UPLC BEH C18, 100 × 1 mm, 1.7 µm, 50 °C, 0.3 mL/min, estimated dead time 0.17 min; A: water + 0.1% formic acid + 20 mM ammonium formate; B: methanol + 0.1% formic acid + 20 mM ammonium formate; gradient (min/%B) 0/0 15/100 21/100 22/0 30/0; conditions: stereoisomer not certain
Measured endpoint: LC retention time (min)
Answers are plain numbers, in min.

Worked cases, LC retention time given:
Molecule	LC retention time [min]
CC(C)c1ccc(NC(N)=O)cc1	12.3
Cc1cccc(N(C)C(=S)Oc2ccc3ccccc3c2)c1 [Tolnaftate]	16.6
O=C1C=CCC2C3CCCN4CCCC(CN12)C34 (configuration not stated)	5.39
CCCCNc1ccc(C(=O)OCCN(C)C)cc1	11.4
COc1ccc2c(c1)[nH]c1c(C)nccc12	9.88

Consider the following items and state reported LC retention time for each.
1. CCCCNC(=O)OCC#CI [3-Iodopropynyl butylcarbamate]
2. CNC(=O)N(C)c1nnc(C(C)(C)C)s1

## Result
1. 12.9
2. 11.9
